The reported measurements were obtained from the Immune Epitope Database (IEDB).

target: HLA-B*40:01; assay: IEDB peptide-MHC binding, purified MHC/competitive/radioactivity; filed as Kd, often an IC50 or EC50 that approximates it; bounds were set here for any values at or beyond the usual limits of such assays; conditions: source organism: Mammarenavirus lassaense
READOUT LABEL: pKd
Answers are plain numbers, as −log10 of the molar value.

Quick one: pKd for `KEAYCQEFSL` ? 7.05

* * *

Assignment: determine reported Kd for the given sequences.
molecular target: HLA-B*40:01; test: IEDB peptide-MHC binding, purified MHC/direct/fluorescence; filed as Kd, often an IC50 or EC50 that approximates it; bounds were set here for any values at or beyond the usual limits of such assays; conditions: source organism: Vibrio cholerae

RVHGATVFK | ≥ 20 µM

Please tell me: Kd of `DSDPMDGCE` , system HLA-B*40:01? ≥ 20 µM

* * *

molecular target: HLA-B*07:02; assay: IEDB peptide-MHC binding, purified MHC/direct/fluorescence; filed as Kd, often an IC50 or EC50 that approximates it; bounds were set here for any values at or beyond the usual limits of such assays; details: source organism: Vibrio cholerae
READOUT LABEL: Kd

RVHGATVFK | ≥ 20 µM

Report Kd for `DSDPMDGCE` please. ≥ 20 µM

* * *

target: HLA-A*02:03; assay: IEDB peptide-MHC binding, purified MHC/competitive/fluorescence; filed as Kd, often an IC50 or EC50 that approximates it; bounds were set here for any values at or beyond the usual limits of such assays; conditions: source organism: Vibrio vulnificus YJ016
READOUT LABEL: Kd

Form field: reported Kd of `GMWCVLASR` ≥ 20 µM

* * *

target: HLA-A*02:12; assay: IEDB peptide-MHC binding, purified MHC/direct/fluorescence; filed as Kd, often an IC50 or EC50 that approximates it; bounds were set here for any values at or beyond the usual limits of such assays; conditions: source organism: Burkholderia mallei
pKd: −log10 of the molar value.
READOUT LABEL: pKd

What does the record list as pKd for `RVVRPWGSY` ? ≤ 4.70

* * *

molecular target: HLA-B*48:01; experiment: IEDB peptide-MHC binding, purified MHC/direct/fluorescence; filed as Kd, often an IC50 or EC50 that approximates it; bounds were set here for any values at or beyond the usual limits of such assays; conditions: source organism: Mycobacterium tuberculosis
Assignment: determine reported Kd for the given sequences.

Some solved entries appear below for comparison.
RIRSERPAF | ≥ 20 µM
AVFDSFVER | ≥ 20 µM
IPAPGLGAL | ≥ 20 µM
RGRIGRTYL | 3.04 µM

Provide the documented Kd with HLA-B*48:01 as the system for `VPRDRNGTF` ≥ 20 µM

* * *

target: HLA-A*03:01; experiment: IEDB peptide-MHC binding, purified MHC/competitive/radioactivity; filed as Kd, often an IC50 or EC50 that approximates it; bounds were set here for any values at or beyond the usual limits of such assays; settings: source organism: Dengue virus 2 Peru/IQT2913/1996
READOUT LABEL: Kd (nM)
Give bare numbers, in nM.

Fill blank: measured Kd of the sequence `RQMEGEGVFK` is ____. 23.9

* * *

molecular target: HLA-B*15:01; test: IEDB peptide-MHC binding, purified MHC/competitive/radioactivity; filed as Kd, often an IC50 or EC50 that approximates it; bounds were set here for any values at or beyond the usual limits of such assays; conditions: source organism: Vaccinia virus WR
READOUT LABEL: pKd
Give bare numbers, as −log10 of the molar value.

MSIMPVLAY | 8.86
LAESVKMHM | 6.02
RMFGSKPTF | 5.12

Parameters: items (list). Returns: pKd for each item.
1. RLIVLFEVF
2. MLIEVILTA
3. YFIKHVLAF
4. LAKKTLAPF
5. LANTNFFVF
6. LTIACRVSL

8.16
6.68
8.60
8.67
7.77
7.12

Give pKd for all sequences that follow.
1. MMIDDFGTA
2. FILTAILFF
3. VIIHVIEHL
4. LMFKHLLHP
5. NSKSRICVI

1: 8.12; 2: 6.74; 3: 5.92; 4: 6.99; 5: 5.85

Record pKd per entry; entries follow.
1. KSKKYEGPF
2. VMSQEDNHF

8.73
6.72
